Test target: Human Cav3.2 (Homo sapiens)
Sequence (O95180 whole entry): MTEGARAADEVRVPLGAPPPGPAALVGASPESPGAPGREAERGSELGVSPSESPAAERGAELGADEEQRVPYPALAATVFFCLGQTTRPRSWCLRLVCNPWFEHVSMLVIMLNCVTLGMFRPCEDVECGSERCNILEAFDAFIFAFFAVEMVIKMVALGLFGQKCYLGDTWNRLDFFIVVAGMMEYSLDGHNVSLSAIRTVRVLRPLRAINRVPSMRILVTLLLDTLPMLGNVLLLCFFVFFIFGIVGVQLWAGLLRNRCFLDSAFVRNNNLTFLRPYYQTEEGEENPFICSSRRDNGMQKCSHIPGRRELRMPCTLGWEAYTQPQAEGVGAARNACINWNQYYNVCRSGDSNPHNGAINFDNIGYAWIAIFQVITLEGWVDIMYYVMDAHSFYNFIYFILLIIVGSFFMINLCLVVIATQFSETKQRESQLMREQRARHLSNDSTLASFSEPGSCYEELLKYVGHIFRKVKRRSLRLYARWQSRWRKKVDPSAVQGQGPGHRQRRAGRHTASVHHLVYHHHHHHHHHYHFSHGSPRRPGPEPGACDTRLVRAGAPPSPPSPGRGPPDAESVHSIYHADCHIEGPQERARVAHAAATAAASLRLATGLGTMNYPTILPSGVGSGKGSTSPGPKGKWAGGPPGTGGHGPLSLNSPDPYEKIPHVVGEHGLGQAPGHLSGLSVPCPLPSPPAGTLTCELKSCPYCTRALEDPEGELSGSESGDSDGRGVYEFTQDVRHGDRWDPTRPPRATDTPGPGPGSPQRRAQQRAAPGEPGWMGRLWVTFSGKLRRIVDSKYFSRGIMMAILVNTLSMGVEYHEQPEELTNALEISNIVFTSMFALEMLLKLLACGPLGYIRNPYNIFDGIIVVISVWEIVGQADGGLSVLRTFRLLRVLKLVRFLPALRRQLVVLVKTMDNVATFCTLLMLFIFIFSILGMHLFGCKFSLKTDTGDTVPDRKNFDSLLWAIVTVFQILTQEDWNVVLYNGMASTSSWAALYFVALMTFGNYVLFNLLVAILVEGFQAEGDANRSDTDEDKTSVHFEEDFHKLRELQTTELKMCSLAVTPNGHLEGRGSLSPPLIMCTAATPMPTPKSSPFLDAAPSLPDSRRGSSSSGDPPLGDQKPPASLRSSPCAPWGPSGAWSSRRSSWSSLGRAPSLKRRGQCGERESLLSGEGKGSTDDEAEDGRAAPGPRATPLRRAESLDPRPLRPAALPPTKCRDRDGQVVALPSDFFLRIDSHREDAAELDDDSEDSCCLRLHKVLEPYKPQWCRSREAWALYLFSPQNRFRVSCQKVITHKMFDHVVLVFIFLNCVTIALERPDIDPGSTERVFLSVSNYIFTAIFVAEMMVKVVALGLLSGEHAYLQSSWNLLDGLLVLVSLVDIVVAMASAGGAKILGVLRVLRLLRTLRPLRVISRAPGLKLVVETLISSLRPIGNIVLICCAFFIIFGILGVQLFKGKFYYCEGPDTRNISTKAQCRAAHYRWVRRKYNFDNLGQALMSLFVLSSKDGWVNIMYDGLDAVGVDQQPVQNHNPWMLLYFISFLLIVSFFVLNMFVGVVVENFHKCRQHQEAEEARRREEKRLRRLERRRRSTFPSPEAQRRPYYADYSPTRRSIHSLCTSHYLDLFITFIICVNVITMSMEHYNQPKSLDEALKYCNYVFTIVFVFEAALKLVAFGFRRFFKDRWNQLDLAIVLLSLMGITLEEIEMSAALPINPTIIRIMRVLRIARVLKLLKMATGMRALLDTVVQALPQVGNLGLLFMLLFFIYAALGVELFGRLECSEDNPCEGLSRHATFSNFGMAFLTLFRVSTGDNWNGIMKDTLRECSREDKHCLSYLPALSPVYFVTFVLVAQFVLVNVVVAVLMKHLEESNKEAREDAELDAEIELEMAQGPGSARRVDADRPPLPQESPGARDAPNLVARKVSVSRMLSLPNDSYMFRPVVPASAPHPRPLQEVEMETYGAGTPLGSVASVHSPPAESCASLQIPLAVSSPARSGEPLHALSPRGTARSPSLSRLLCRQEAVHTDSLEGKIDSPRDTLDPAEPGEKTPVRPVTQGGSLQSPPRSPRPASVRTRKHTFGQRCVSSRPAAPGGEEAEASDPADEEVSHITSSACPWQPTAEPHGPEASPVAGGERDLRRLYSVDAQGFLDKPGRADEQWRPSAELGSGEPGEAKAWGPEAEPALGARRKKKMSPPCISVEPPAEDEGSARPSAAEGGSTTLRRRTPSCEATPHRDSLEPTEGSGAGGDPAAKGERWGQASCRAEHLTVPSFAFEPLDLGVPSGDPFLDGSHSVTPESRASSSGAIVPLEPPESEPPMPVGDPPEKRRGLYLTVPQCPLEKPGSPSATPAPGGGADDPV
Protocol summary: Electrophysiologic (whole-cell patch-clamp) assessment of calcium channel activity, HEK293 cells stably expressing hCav3.2
Conditions: −77 mV, GeoMean
Documented IC50 across a set of compounds

Would you please look over these solved cases?
> print(dat)
                                  structure                  test.target  endpoint.name  measured.result
1  O=C(CN1CCCC(c2ccccc2)(c2ccccc2)C1=O)N1C[C@H]2CCCN[C@H]2C1  Human Cav3.2 (Homo sapiens)           IC50          > 10 µM
2  O=C1CN(C(=O)CN2CCCC(c3ccccc3)(c3ccccc3)C2=O)CCN1  Human Cav3.2 (Homo sapiens)           IC50          > 10 µM

Could you now look at the following compound, please?
Input O=C(CN1CCCC(c2ccccc2)(c2ccccc2)C1=O)NC[C@H]1CCCN1 , output reported IC50.
> 10 µM

Data origin: patent US8815869B2
